Data provenance is paper PMC10716038.

molecular target: T1, THD1 I396A (UniProt P26039 1-405, I396A); assay: MST; apparent; THD1 or THD1 mutants titrated to 488–β3-CT in the presence of 30-40 µM KIND2; MST buffer; details: both partners purified
T1 construct: talin-1 (TLN1) head domain, residues 1-405, I396A; source: E. coli (DE3) Rosetta 2, purified (IMAC, SEC); not shown: His10-SUMO, N-terminal, cleaved
T1 sequence (P26039 1-405 I396A): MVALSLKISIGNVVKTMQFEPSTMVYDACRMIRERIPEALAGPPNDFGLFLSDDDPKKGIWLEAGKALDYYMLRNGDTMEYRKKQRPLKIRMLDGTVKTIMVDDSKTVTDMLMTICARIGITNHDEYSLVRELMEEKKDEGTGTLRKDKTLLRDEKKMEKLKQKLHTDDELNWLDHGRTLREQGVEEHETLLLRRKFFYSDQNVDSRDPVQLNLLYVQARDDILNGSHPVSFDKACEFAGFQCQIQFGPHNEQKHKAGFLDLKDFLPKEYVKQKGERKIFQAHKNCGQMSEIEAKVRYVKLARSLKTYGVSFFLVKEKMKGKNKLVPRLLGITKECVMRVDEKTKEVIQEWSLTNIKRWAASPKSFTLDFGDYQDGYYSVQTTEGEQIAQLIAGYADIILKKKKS
pKd: −log10 of the molar value. No end group written: not given here.
REPORTED ENDPOINT: pKd

binder="{ATTO 488}-KLLITIHDRKEFAKFEEERARAKWDTANNPLYKEATSTFTNITYRGT (peptide, UniProt O54890 741-787, looked up, integrin β3 cytoplasmic tail (β3-CT); source: synthetic peptide (MPIB Core Facility)) [ATTO 488-labeled integrin β3 cytoplasmic tail (488–β3-CT)]" reported_endpoint=pKd recorded_measurement=3.26
